# Tested on: A549 cells
# assay-protocol: Cell growth inhibition, A549
# Format: cell-based, human
# recorded-conditions: A549, sodium salt form
This section presents molecules with their documented pIC50 values.
Scale explanation: pIC50 corresponds to minus log10 of a concentration expressed in moles per litre.

CCCCCCCC/C=C\CCCCCCC(O)C(=O)O (stereo not drawn) [[+]2OHOA]    3.88

# pIC50 lookup, item CCCCC/C=C\C/C=C\C/C=C\CCCC(O)C(=O)O (racemic) [Racemic 2OH18:3g, 2-hydroxy-γ-linoleic acid] 3.69

# pIC50 lookup, item CC/C=C\C/C=C\C/C=C\CCCCCCC(O)C(=O)O (racemic) [Racemic 2OH18:3a, 2-hydroxy-α-linoleic acid] 3.66

# pIC50 lookup, item CCCCC/C=C\C/C=C\C/C=C\CCCC(O)C(=O)O (stereo not drawn) [[−]2OH18:3g] [2-hydroxy-γ-linoleic acid] 3.81

# pIC50 lookup, item CCCCCC/C=C\CCCCCCC(O)C(=O)O (stereo not drawn) [[−]2OH16:1] [2-hydroxypalmitoleic acid] 3.96

# pIC50 lookup, item CCCCC/C=C\C/C=C\CCCCCCC(O)C(=O)O (stereo not drawn) [[+]2OH18:2] [2-hydroxylinoleic acid] 3.73

# pIC50 lookup, item CC/C=C\C/C=C\C/C=C\CCCCCCC(O)C(=O)O (stereo not drawn) [[−]2OH18:3a] [2-hydroxy-α-linoleic acid] 3.84

# pIC50 lookup, item CCCCC/C=C\C/C=C\CCCCCCC(O)C(=O)O (stereo not drawn) [[−]2OH18:2] [2-hydroxylinoleic acid] 4.16

# pIC50 lookup, item CCCCC/C=C\C/C=C\C/C=C\CCCC(O)C(=O)O (stereo not drawn) [[+]2OH18:3g] [2-hydroxy-γ-linoleic acid] 3.47

# pIC50 lookup, item CCCCCCCC/C=C\CCCCCCC(O)C(=O)O (stereo not drawn) [[−]2OHOA] 4.28

# pIC50 lookup, item CC/C=C\C/C=C\C/C=C\CCCCCCC(O)C(=O)O (stereo not drawn) [[+]2OH18:3a] [2-hydroxy-α-linoleic acid] 3.45

# pIC50 lookup, item CCCCCC/C=C\CCCCCCC(O)C(=O)O (stereo not drawn) [[+]2OH16:1] [2-hydroxypalmitoleic acid] 3.52

----------
# Test system: BXPC3 cells
# assay-protocol: Cell growth inhibition, BXPC3
# Format: cell-based, human
# recorded-conditions: Homo sapiens, BXPC-3; BXPC3, sodium salt form
result-type: pIC50
Scale explanation: pIC50 corresponds to minus log10 of a concentration expressed in moles per litre.

Give pIC50 (BXPC3 cells) of the following compound: CCCCCCCC/C=C\CCCCCCC(O)C(=O)O (racemic) [2OHOA, 2-hydroxyoleic acid] 4.01
